In this section, each of the compounds is paired with its reported GI50.
- Tested on: HL-60
- protocol-details: NCI tumour cell line growth inhibition, 48 h
Active and inactive are the calls of the source. Cut-off read from the data, not from the text of the source: active = GI50 up to about 1.1 µM and inactive = higher.

Examples with answers:
- CCOC(=O)/C=C/c1nc(C#N)c(N)o1: > 100 µM (inactive)
- Cc1ccccc1C(=O)N/N=C/c1ccc(Sc2nccn2C)c([N+](=O)[O-])c1: 44.3 µM (inactive)
- COc1cc2c(cc1OC)C1C(O)C(OC)C(Br)C3(Br)CCN(C2)C13 (configuration not stated): > 100 µM (inactive)
- CN1/C(=C\N=O)C(C)(C)N(O)C1(C)C: > 100 µM (inactive)
- CCC(C(=O)c1ccc(OC)c(OC)c1)N(C(=O)C(F)(F)F)C(C)c1ccccc1 (configuration not stated): > 100 µM (inactive)

Exam item: Item under review: CCOC(=O)C(C(=O)OCC)P(=S)(S)c1ccccc1 (configuration not stated) . Reported GI50?
Marked response: > 100 µM (inactive)

Exam item: Consider the compound CN1C(C)(C)CC(=O)C(Br)C1(C)C (configuration not stated) and give its measured GI50.
Marked response: > 100 µM (inactive)

Exam item: Any idea what its GI50 is? The compound is "CCCCOC(=O)/C(CC(=O)C=C(C)C)=N\NS(=O)(=O)c1ccc(C)cc1"
Marked response: > 100 µM (inactive)

Exam item: Which GI50 is listed for "CSC1=Nc2ccccc2-c2nc3ccccc3cc2C1" ?
Marked response: 76 µM (inactive)

Exam item: Which GI50 is reported for this compound? "COc1ccc(Nc2nc(C#N)c(N)s2)cc1"
Marked response: 24.5 µM (inactive)

Exam item: Which measured GI50 value corresponds to "OC1=CN=COc2ccccc21" ?
Marked response: > 100 µM (inactive)

Exam item: I'd like to know its GI50. The compound in question is CCOC(=O)C1=C(C)N(Cc2ccccc2)C(=O)C1CC#N (configuration not stated)
Marked response: 26.7 µM (inactive)
